conditions: 323.15 K; 5000 kPa; Liquid
Numbers after ± are expanded uncertainties.
Assay Metric: mass density

CCCCn1cc[n+](C)c1.F[B-](F)(F)F [1-butyl-3-methylimidazolium tetrafluoroborate] ... 1185.5 ± 2.8 kg/m3
CCCCCCn1cc[n+](C)c1.F[P-](F)(F)(F)(F)F [1-hexyl-3-methylimidazolium hexafluorophosphate] ... 1275.6 ± 3.6 kg/m3
CCCCCCCC[n+]1ccn(C)c1.F[P-](F)(F)(F)(F)F [1-octyl-3-methylimidazolium hexafluorophosphate] ... 1220.6 ± 3.1 kg/m3
CCCCn1cc[n+](C)c1C.F[P-](F)(F)(F)(F)F [1-butyl-2,3-dimethylimidazolium hexafluorophosphate] ... 1333.6 ± 4.1 kg/m3
CCCCn1cc[n+](C)c1.O=S(=O)([O-])C(F)(F)F [1-butyl-3-methylimidazolium trifluoromethanesulfonate] ... 1282 ± 1.9 kg/m3

Which value of mass density has been reported for CCCCCCCC[n+]1ccn(C)c1.F[B-](F)(F)F [1-methyl-3-octylimidazolium tetrafluoroborate] in the records?
1088 ± 1 kg/m3
